Numbers sourced from patent US20230272055A1.

Molecular target: T1, human mutCALR on BaF3 cells stably expressing human MPL and human mutCALR (MPL-mutCALR cells) (human)
T1 construct: also called mutant calreticulin
T1 chain: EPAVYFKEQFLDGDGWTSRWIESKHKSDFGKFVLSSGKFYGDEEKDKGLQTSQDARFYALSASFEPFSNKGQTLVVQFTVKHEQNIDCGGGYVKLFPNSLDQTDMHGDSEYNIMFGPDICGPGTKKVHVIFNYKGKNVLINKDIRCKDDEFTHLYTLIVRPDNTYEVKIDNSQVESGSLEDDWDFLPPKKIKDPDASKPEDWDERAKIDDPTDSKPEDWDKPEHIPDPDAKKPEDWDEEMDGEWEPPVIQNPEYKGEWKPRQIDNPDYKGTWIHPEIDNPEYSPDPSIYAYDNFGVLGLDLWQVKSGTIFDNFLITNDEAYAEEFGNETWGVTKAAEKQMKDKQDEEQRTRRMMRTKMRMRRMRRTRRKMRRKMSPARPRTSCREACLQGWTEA
Experiment: flow cytometry, BaF3 MPL-mutCALR cells
REPORTED METRIC: MPL-mutCALR AUC
Numbers only.

GET /value?item= anti-mutCALR antibody clone 20 (antibody, human IgG1, lambda, V domains shown, human IgG1) VH: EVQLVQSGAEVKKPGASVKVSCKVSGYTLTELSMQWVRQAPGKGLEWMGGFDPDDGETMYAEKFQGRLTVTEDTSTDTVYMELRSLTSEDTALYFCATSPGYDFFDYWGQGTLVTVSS VL: SYVLTQPPSVSVAPGKTARITCGGNNIGSKGVHWYQQKPGQAPVLVVYDDSDRPSGIPERFSGSNSGNTATLTINRVEAGDEADYYCQVWDSSNDLLIFGGGTKLTVLG &field=MPL-mutCALR AUC returns 92700

Below: the item to evaluate.
GET /value?item= anti-mutCALR antibody clone 141 (antibody, human IgG1, lambda, N297A, V domains shown) VH: EVQLVQSGAEVKKPGASVKVSCKVSGYTLTELSMQWVRQAPGKGLEWMGGFDPDSGETMYAEKFQGRLTVTEDTSTDTVYMELSSLRSEDTAVYFCATSPGYDFFDYWGQGTLVTVSS VL: SYVLTQPPSVSVAPGKTARITCGGDNIGSKSVHWYQQKPGQAPVLVVYDDSDRPSGIPERFSGSNSGNTATLTISRVEAGDEADYYCQVWDSSNDLLIFGGGTKLTVLG &field=MPL-mutCALR AUC returns 60800
